Assay target: UniProt P21731
Sequence (P21731 whole entry): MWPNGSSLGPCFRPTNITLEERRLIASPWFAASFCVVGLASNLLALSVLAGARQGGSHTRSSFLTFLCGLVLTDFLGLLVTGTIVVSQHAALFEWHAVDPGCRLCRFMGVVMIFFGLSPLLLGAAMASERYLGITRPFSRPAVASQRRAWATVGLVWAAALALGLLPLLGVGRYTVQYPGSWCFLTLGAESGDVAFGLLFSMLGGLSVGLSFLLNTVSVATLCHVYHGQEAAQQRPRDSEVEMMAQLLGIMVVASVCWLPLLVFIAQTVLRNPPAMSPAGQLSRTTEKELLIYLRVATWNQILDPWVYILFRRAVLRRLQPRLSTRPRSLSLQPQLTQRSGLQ
Measurement protocol: Activity at TPbeta (long isoform) receptor expressed in HEK293 cells assessed as ability to antagonize U46619-mediated calcium ion mobilization
Type: functional, cell-based
The following molecules are shown together with reported pIC50 values.
# pIC50: negative log10 of molar concentration; output just the value

Known results for molecules:
Compound structure string | pIC50
CCCCCCNC(=O)NS(=O)(=O)c1cc([N+](=O)[O-])ccc1Oc1ccc(C)cc1 | 7.23
Cc1ccc(Oc2ccc([N+](=O)[O-])cc2S(=O)(=O)NC(=O)NC(C)(C)C)cc1 | 7.24
CCCCCCCNC(=O)NS(=O)(=O)c1cc([N+](=O)[O-])ccc1NC1CCCCC1 | 7.26

What the record says about CCCCCNC(=O)NS(=O)(=O)c1cc([N+](=O)[O-])ccc1Nc1cc(C)cc(C)c1 : pIC50 is 7.12

What the record says about CCCCCNC(=O)NS(=O)(=O)c1cc([N+](=O)[O-])ccc1Oc1ccc(C)cc1 : pIC50 is 7.26

What the record says about CCCCCNC(=O)NS(=O)(=O)c1cc([N+](=O)[O-])ccc1Nc1c(C)cccc1C : pIC50 is 7.33

What the record says about Cc1ccc(Nc2ccc([N+](=O)[O-])cc2S(=O)(=O)NC(=O)NCc2ccccc2)cc1 : pIC50 is 7.35

What the record says about CCCCCCNC(=O)NS(=O)(=O)c1cc([N+](=O)[O-])ccc1NC1CCCCC1 : pIC50 is 7.34

* * *

The following compounds are shown together with reported Activity values.
Assay target: UniProt P21731
Measurement protocol: Displacement of [3H]SQ-29548 from TPbeta receptor (long isoform) expressed in COS7 cells at 1 nM
Assay conditions: COS-7
Kindly provide the numeric value in % only, without the unit symbol.

Known results for compounds:
Compound structure string | Assay target | Activity [%]
CCCCCCNC(=O)NS(=O)(=O)c1cc([N+](=O)[O-])ccc1Oc1ccc(C)cc1 | UniProt P21731 | 46.1
Cc1ccc(Sc2ccc([N+](=O)[O-])cc2S(=O)(=O)NC(=O)NC(C)(C)C)cc1 | UniProt P21731 | 37.7
CCCCCNC(=O)NS(=O)(=O)c1cc([N+](=O)[O-])ccc1Nc1ccc(Cl)cc1 | UniProt P21731 | 52.7
CCCCCNC(=O)NS(=O)(=O)c1cc([N+](=O)[O-])ccc1Sc1ccccc1C | UniProt P21731 | 32.7

Pending compound:
What the record says about CCCCCNC(=O)NS(=O)(=O)c1cc([N+](=O)[O-])ccc1Nc1ccccc1C : Activity is 45.3
